# Target Of Assay: DRB1*15:01
# Experimental Setup: modification not given
Value Kind: IC50 (µM)
Expressed in µM, but write only the number.

// IC50 lookup, key: TSVDCTMYICGDSTE [… (position 734)] 36.7
